# target: PMCA4 (Homo sapiens, UniProt P23634)
# experiment: PMCA Ca2+-Mg2+-ATPase in human erythrocyte ghosts, coupled enzyme assay
# Format: biochemical
No end group written: not given here.
property name: pKi
Please keep in mind that pKi is minus log10 of the molar concentration; only the number is needed.

pKi reported for this substance TAWSEVLDLLRRGGGSK-NH2 [caloxin 1c2] : 5.64

====

# target: PMCA2 (Homo sapiens)
# Sequence (Q01814 1-1243): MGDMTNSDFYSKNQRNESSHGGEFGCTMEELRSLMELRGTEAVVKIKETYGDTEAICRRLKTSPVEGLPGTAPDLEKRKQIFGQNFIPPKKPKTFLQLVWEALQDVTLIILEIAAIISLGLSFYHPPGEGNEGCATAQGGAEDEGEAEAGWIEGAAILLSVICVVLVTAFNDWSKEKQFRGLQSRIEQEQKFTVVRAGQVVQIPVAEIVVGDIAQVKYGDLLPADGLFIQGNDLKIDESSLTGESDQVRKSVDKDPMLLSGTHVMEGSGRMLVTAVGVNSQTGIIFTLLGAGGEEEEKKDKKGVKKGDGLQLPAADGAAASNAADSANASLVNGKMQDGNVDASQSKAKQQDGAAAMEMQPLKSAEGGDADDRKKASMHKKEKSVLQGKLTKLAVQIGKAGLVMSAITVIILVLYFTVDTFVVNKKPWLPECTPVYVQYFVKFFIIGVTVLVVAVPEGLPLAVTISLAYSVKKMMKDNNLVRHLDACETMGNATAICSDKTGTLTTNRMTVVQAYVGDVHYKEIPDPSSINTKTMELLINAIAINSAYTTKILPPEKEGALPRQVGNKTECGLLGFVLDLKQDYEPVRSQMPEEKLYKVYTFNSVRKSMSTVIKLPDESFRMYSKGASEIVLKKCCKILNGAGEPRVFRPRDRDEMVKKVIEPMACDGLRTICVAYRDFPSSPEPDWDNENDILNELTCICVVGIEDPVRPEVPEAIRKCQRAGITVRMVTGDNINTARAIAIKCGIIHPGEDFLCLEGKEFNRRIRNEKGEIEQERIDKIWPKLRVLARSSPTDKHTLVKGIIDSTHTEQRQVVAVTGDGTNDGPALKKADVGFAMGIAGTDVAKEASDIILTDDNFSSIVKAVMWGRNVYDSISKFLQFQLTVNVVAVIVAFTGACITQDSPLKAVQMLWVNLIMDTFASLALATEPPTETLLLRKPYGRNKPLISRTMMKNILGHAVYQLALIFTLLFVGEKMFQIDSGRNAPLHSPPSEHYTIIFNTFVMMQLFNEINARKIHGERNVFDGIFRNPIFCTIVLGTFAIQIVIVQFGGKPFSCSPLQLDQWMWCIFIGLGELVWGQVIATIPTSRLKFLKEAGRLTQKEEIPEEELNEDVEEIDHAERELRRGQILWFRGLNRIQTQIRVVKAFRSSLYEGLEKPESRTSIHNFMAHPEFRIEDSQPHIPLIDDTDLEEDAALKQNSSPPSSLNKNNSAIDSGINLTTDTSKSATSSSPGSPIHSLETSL
# experiment: Ca2+-Mg2+-ATPase of microsomes from overexpressing insect cells sf9
# Format: biochemical
No end group written: not given here.
property name: Ki (µM)
Provide only the numeric value, understood in µM.

Ki reported for this substance TAWSEVLDLLRRGGGSK-NH2 [caloxin 1c2] : 40
